Tested on: P. falciparum 3D7 growth, pLDH absorbance
experimentNotes: blood-stage malaria parasite growth potency – strain 3D7, dose response (AID 2305)
Lab note: cut-off is 1 µM. Strictly less in IC50 is condition met. Exactly 1 µM or more is condition not met.

Q: Dear colleague, could you confirm whether IC50 of Cc1ccccc1C1CCN(C2CCC(NC(=O)/C=C/c3cccc(F)c3F)CC2)CC1 (stereo not given) falls below 1 µM? Thanks.
Result: condition not met

Q: Dear colleague, could you confirm whether IC50 of CN1CCN(CC(=O)Nc2ccc(-c3csc(-c4nc5ccccc5[nH]4)c3)cc2)CC1 falls below 1 µM? Thanks.
Result: condition not met

Q: Dear colleague, could you confirm whether IC50 of Cc1cccc2[nH]c(-c3ccc(-c4ccc(CN5CCN(CC6CCCN(C)C6)CC5)cc4)cc3)nc12 (stereo not given) falls below 1 µM? Thanks.
Result: condition met

Q: Dear colleague, could you confirm whether IC50 of Cc1ccc(Nc2ccnc(Nc3ccc(F)c(Cl)c3)n2)cc1O falls below 1 µM? Thanks.
Result: condition met

Q: Dear colleague, could you confirm whether IC50 of O=C(NCCCCN1CCC(O)(c2ccc3c(c2)OCO3)CC1)c1ccc(NC(=O)c2ccc(Cl)cc2)cc1 falls below 1 µM? Thanks.
Result: condition not met

* * *

Tested on: P. falciparum 3D7 growth, pLDH absorbance
experimentNotes: blood-stage malaria parasite growth potency – strain 3D7, dose response (AID 2305)
quantityKind: pIC50
Answers are plain numbers, as −log10 of the molar value.

>>> recordednumber("O=C(C=Cc1ccc(Cl)c(Cl)c1)NCCCCCN1CCC(CCCNC(=O)c2sc3ccccc3c2Cl)CC1")
6.40
>>> recordednumber("O=C(Nc1ccc2c(ccn2C2CCCN(Cc3cc(F)cc(F)c3F)CC2)c1)c1ccco1 (centres undefined)")
6.19
>>> recordednumber("Cc1cc(N[C@@H](Cc2ccccc2)C(=O)NCCCOC(C)C)nc(NCC2CCCCC2)n1")
6.06

Please look at the items below and tell me pIC50 for each one, in order.
1. Cn1c(NCc2cc(F)cc3c2OCOC3)nc2cc(Nc3ccnc(Nc4cccc(CS(C)(=O)=O)c4)n3)ccc21
2. CCCCC(=O)Nc1nc2ccc([N+](=O)[O-])cc2s1
3. Cc1cc(C2CCN(CCCCNC(=O)c3ccc(NC(=O)c4ccc(Cl)cc4)cc3)CC2)c(C)cc1OCc1cccnc1
4. CCOC(=O)c1cccc(NC(=O)Nc2cc(C)nc3ccccc23)c1

Result:
6.82
6.12
6.22
6.54

* * *

I'd be grateful if you could share measured IC50 for these entries.
Test system: P. falciparum 3D7 growth, pLDH absorbance
experimentNotes: blood-stage malaria parasite growth potency – strain 3D7, dose response (AID 2305)
Give bare numbers, in nM.

In the examples that follow, each entry is paired with its recorded IC50.
>>> recordednumber("CC(Cc1ccc(NC(=O)COc2ccc(CC(C)NCCc3cccc(Cl)c3)cc2)cc1)NCCc1cccc(Cl)c1 (centres undefined)")
80
>>> recordednumber("COc1cc(NC(=O)/C=C/c2cccc3cc[nH]c23)ccc1OCCN(C(C)C)C(C)C")
270
>>> recordednumber("CCN1CCC(N2CCC(C(=O)Nc3cccc(-c4cccc(Cl)c4)c3)CC2)CC1")
1080

Please look at the items below and tell me IC50 for each one, in order.
1. N#Cc1cc(C(=O)c2cc(Br)ccc2O)cn(C2CCCCC2)c1=O
2. Cc1cccc2[nH]c(-c3cccc(-c4cccc(CN5CCN(c6ccc(C#N)cn6)CC5)c4)c3)nc12
3. O=C(/C=C/c1ccc(Cl)c(Cl)c1)NCCCCCN1CCC(n2c(=O)[nH]c3ccccc32)CC1
4. CCCCc1ccc2nc(NC(=O)OC)[nH]c2c1

Result:
[910, 1160, 870, 680]

Please look at the items below and tell me IC50 for each one, in order.
1. Cc1ccc2cc(C3NC(=O)c4ccccc4N3)c(Cl)nc2c1 (centres undefined)
2. CCCC(=O)Nc1ccc(OCCCN(Cc2ccccc2C(F)(F)F)c2ccc(C#N)c(C(F)(F)F)c2)cc1
3. COc1ccc([C@@]23Oc4cc(OC)cc(OC)c4[C@]2(O)C2(CC3c3ccccc3)SCCCS2)cc1 (some centres undefined)
4. CCCCCOc1ccc(C=NNc2nc(-c3ccccc3)cc(=O)[nH]2)cc1

Result:
1: 940; 2: 930; 3: 120; 4: 890

Please look at the items below and tell me IC50 for each one, in order.
1. CN1CCN(CCCN(Cc2cccc(-c3cccc(CNCc4ccc5c(c4)OCO5)c3)c2)C(=O)CCC2CCCC2)CC1
2. COc1ccc(-c2ccc(NC(=O)c3cccs3)cc2)cc1CN1CCCN(C)CC1
3. O=C(Nc1ccc(C(=O)Nc2ccc(C3=NCCN3)cc2)cc1)Nc1ccc(C2=NCCN2)cc1
4. COc1ccc(NC(=O)/C=C/c2ccc(Cl)c(Cl)c2)cc1N1CCN(C)CC1
5. COCCN1CCN(Cc2ccc(-c3ccc(-c4nc5c(C)cccc5[nH]4)s3)cc2)CC1
6. c1ccc(CN2CCC(NCc3ccccc3-c3cccc(CNC4CCCC4)c3)CC2)cc1

Result:
1: 950; 2: 960; 3: 180; 4: 980; 5: 860; 6: 720

* * *

Test system: P. falciparum 3D7 growth, pLDH absorbance
experimentNotes: blood-stage malaria parasite growth potency – strain 3D7, dose response (AID 2305)
quantityKind: pIC50
Numbers only, as −log10 of the molar value.

>>> recordednumber("CS(=O)(=O)c1ccc(CNCc2ccc(-c3ccc(-c4nc5ccc(C(F)(F)F)cc5[nH]4)cc3)cc2)cc1")
6.15

Please look at the items below and tell me pIC50 for each one, in order.
1. Cc1nc2nc(N)nc(N)c2c(C)c1Cc1ccccc1I
2. O=C(C=Cc1cc([N+](=O)[O-])ccc1Cl)N1CCC(CCN2CCC(c3c[nH]c4ccccc34)CC2)CC1

Result:
1: 6.46; 2: 6.13

Please look at the items below and tell me pIC50 for each one, in order.
1. CN(c1ccc2c(c1)nc(NC(=O)C1(c3cc(F)ccc3F)CC1)n2C)c1ccnc(Nc2cccc(CS(C)(=O)=O)c2)n1
2. NOCCCCOc1ccc(Cl)cc1

Result:
1. 5.96
2. 6.11

Please look at the items below and tell me pIC50 for each one, in order.
1. COc1cccc(NC(=O)NC2CCN(CCCCCNC(=O)/C=C/c3ccc(Cl)c(Cl)c3)CC2)c1
2. CCCCOC(=O)c1ccc(Nc2cc(C)nc3ccc(OC)cc23)cc1
3. CCCC(=O)Nc1ccc(OCCCN(Cc2ccccc2F)c2ccc(C#N)c(C(F)(F)F)c2)cc1

Result:
1. 6.11
2. 6.19
3. 6.23

Q: State the recorded pIC50 for this entry: N#Cc1ccc2c(c1)CN(C1CCC(NC(=O)c3cc(-c4ccc(Cl)cc4)cs3)CC1)CCC2 (centres undefined)
Result: 6.02

* * *

I'd be grateful if you could share measured IC50 for these entries.
System: P. falciparum 3D7 growth, pLDH absorbance
experimentNotes: blood-stage malaria parasite growth potency – strain 3D7, dose response (AID 2305)
Numbers only, in nM.

In the examples that follow, each entry is paired with its recorded IC50.
>>> recordednumber("CCCc1cc(N2CCC(N3CCCC3)CC2)nc(Nc2ccc(OC)cc2)n1")
810
>>> recordednumber("COc1ccc(C=Cc2cc(N)c3ccccc3n2)cc1Br")
710
>>> recordednumber("CNC(=O)/C=C/c1cc(NC(=O)Nc2ccnc3c(Br)cccc23)ccc1OC")
860
>>> recordednumber("O=C(NCC(c1ccc(C(F)(F)F)cc1)N1CCCC1)c1cc(-c2ccncc2)c(-c2cccc(O)c2)o1 (centres undefined)")
1060
>>> recordednumber("COc1cccc(C(=O)Nc2ccc(Nc3nc(C)cc(N4CCCCC4)n3)cc2)c1OC")
1020
>>> recordednumber("Cc1cc(=O)c(-c2ccc(S(=O)(=O)c3ccc(Cl)cc3)cc2)c(C)[nH]1")
880
>>> recordednumber("COc1ccc(CNC(=O)c2cc3c(=O)n4ccccc4nc3n(CCc3ccccc3)c2=N)cc1")
330
>>> recordednumber("COc1ccc2nccc(NC(=O)C3CCC(NCc4ccc5c(c4)NC(=O)CS5)CC3)c2c1 (centres undefined)")
590

Please look at the items below and tell me IC50 for each one, in order.
1. Cn1cc(Br)c(-c2cccc(Nc3ccnc4cc(-c5nccs5)ccc34)c2)n1
2. N#Cc1cccc(CN2CCCN(Cc3cccc(C(=O)Nc4ccc(Cl)cc4)c3)CC2)c1
3. COc1ccc2nc(-c3ccc(F)cc3)cc([C@@H](O)[C@@H]3C[C@@H]4CCN3CC4C=NO)c2c1 (some centres undefined)
4. CN1CCN(c2ccnc3ccc(NC(=O)Nc4ccc(Cl)c(Cl)c4)cc23)CC1
5. O=C(/C=C/c1ccc(Cl)c(Cl)c1)N1CCC(CN2CCC(c3c(Br)[nH]c4ccccc34)CC2)CC1
6. c1ccc(CNCc2cccc(-c3csc(-c4nc5ccccc5[nH]4)c3)c2)cc1

Result:
1: 980; 2: 1180; 3: 250; 4: 880; 5: 290; 6: 460

Please look at the items below and tell me IC50 for each one, in order.
1. CC(C)Oc1cc2c(cc1NS(=O)(=O)c1ccc(-c3ccc(Cl)cc3)cc1)CCN(C)CC2
2. COc1ccc2nccc(N3CCC(CCNCc4ccc5c(n4)NC(=O)CS5)CC3)c2n1
3. COc1ccc(-c2c(C(F)(F)F)nn(C)c2NC(=O)Nc2ccc(F)cc2F)cc1
4. COc1c(CN2CCOCC2)cccc1-c1cc2c(-c3ccc(C(=O)O)c(C(C)C)c3)ccnc2[nH]1

Result:
1. 1040
2. 230
3. 800
4. 740

Q: State the recorded IC50 for this entry: O=C(Nc1ccc(-c2ccc(-c3nc4ccccc4[nH]3)s2)cc1)c1ccncc1
Result: 790
